Provide the reported inhibition of each item.
Molecular target: Serine/threonine-protein kinase PAK 3 (Homo sapiens) (UniProt O75914);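 note: reported percentage is a mean inhibition value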
Sequence (O75914 whole entry, looked up): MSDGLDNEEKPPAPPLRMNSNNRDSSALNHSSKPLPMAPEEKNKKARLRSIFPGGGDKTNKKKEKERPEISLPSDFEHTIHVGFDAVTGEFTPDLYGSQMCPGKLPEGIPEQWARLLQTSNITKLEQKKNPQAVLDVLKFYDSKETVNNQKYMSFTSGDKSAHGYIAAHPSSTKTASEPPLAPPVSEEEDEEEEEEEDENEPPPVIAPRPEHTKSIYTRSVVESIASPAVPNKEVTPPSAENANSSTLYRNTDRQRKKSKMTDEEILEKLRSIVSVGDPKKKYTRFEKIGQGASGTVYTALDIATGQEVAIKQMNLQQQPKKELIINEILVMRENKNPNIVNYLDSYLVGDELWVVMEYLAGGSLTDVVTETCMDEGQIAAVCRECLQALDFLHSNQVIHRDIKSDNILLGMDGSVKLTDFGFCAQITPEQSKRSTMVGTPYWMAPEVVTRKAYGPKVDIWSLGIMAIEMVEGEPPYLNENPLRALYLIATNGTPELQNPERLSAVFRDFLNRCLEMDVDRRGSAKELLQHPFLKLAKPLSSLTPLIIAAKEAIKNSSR
Settings: at 1 µM
Numbers only, in %.

{"Compound": "Fc1ccc(-c2ncn(C3CCNCC3)c2-c2ccnc(Oc3ccc(F)c(F)c3)n2)cc1", "Reported property": "inhibition", "Observed measurement": 5.71}
{"Compound": "C/C(Nc1ccc(S(N)(=O)=O)cc1)=C1/C(=O)Nc2ccccc21", "Reported property": "inhibition", "Observed measurement": -1.11}
{"Compound": "Cc1nnc(-c2ccc(C)c(-c3ccc(C(=O)NCc4ccc(Cl)cc4)cc3)c2)o1", "Reported property": "inhibition", "Observed measurement": 4.01}
{"Compound": "NC(=O)c1cc(-c2ccc(F)cc2)cc(-c2ccncc2)c1N", "Reported property": "inhibition", "Observed measurement": 4.25}

For the 2 compounds below, give their inhibition values.
1. NS(=O)(=O)c1ccc(Nc2cc(-c3ccc(O)c(F)c3)n[nH]2)cc1
2. O=C1NC(=O)C(c2cccc(Cl)c2)=C1Nc1ccc(Cl)c(C(=O)O)c1

RESULT:
1. -3.25
2. 3.74

For the 2 compounds below, give their inhibition values.
1. Nc1nccc(-c2c(-c3ccc(F)cc3)ncn2C2CCC(O)CC2)n1 (stereo not given)
2. CS(=O)(=O)CCNCc1ccc(-c2ccc3ncnc(Nc4ccc(OCc5ccccc5)c(Br)c4)c3c2)o1

RESULT:
1. -3.59
2. 4.4

For the 2 compounds below, give their inhibition values.
1. CN(C)CCCNc1nccc(-c2c(-c3ccc(F)cc3)nn3cc(C(F)(F)F)ccc23)n1
2. COc1cc2ncn(-c3cc(OCc4ccccc4C(F)(F)F)c(C(C)=O)s3)c2cc1OC

RESULT:
1. 2.77
2. 2.41

Cited source: ChEMBL document CHEMBL1961873
